For each entry below, report its koff value.
molecular target: T1, human immunoglobulin E (hIgE) (human, UniProt P01854-1 1-428); assay: SPR (Biacore), pH 7.4
T1 construct: also called human IgE; Native IgE (Abcam)
T1 sequence (P01854 whole entry): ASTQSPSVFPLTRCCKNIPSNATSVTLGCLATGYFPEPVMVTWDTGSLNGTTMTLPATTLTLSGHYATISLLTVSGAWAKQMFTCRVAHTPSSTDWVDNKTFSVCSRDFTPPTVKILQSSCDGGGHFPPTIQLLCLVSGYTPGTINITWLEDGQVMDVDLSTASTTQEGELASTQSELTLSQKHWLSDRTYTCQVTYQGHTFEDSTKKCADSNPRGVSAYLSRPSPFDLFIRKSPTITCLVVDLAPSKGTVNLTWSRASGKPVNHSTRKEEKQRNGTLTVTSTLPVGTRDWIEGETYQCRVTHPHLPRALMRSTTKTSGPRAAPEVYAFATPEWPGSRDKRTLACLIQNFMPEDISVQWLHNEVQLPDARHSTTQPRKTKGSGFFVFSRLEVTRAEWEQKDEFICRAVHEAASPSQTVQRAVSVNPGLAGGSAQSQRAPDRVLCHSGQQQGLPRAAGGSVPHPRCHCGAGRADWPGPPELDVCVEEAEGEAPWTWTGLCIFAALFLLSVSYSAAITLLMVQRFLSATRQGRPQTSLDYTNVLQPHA
Numbers only, in s⁻¹.

Below are worked cases with known answers.
OmaVH15G55H - VL3D28HS31H (antibody, V domains shown) VH: EVQLVESGGGLVQPGGSLRLSCAVSGYSITSGHRWEWIRQAPGKGLEWVASIHYDHSTNYNPSVKGRITISRDDSKNTFYLQMNSLRAEDTAVYYCARATHYFGHWHFAVWGQGTLVTVSS VL: DIQLTQSPSSLSASVGDRVTITCRASQSVDYHGDHYMNWYQQKPGKAPKLLIEWGSYLRSGVPSRFSGSGSGTDFTLTISSLQPEDFATYYCQQNAEDPYTFGQGTKVEIK = 0.000722
OmaVH15G55HW100b - VL3D28H (antibody, V domains shown, also called OmaVH15G55HW100b VL3D25H) VH: EVQLVESGGGLVQPGGSLRLSCAVSGYSITSGHRWEWIRQAPGKGLEWVASIHYDHSTNYNPSVKGRITISRDDSKNTFYLQMNSLRAEDTAVYYCARATHYFGHHHFAVWGQGTLVTVSS VL: DIQLTQSPSSLSASVGDRVTITCRASQSVDYHGDSYMNWYQQKPGKAPKLLIEWGSYLRSGVPSRFSGSGSGTDFTLTISSLQPEDFATYYCQQNAEDPYTFGQGTKVEIK = 0.00303
OmaVH15G55HW100b - VL3 (antibody, V domains shown) VH: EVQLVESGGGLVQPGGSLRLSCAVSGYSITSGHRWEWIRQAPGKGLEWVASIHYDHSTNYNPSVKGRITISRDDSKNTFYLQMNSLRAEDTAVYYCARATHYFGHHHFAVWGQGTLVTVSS VL: DIQLTQSPSSLSASVGDRVTITCRASQSVDYDGDSYMNWYQQKPGKAPKLLIEWGSYLRSGVPSRFSGSGSGTDFTLTISSLQPEDFATYYCQQNAEDPYTFGQGTKVEIK = 0.00226

Okay, next one:
### Prompt koff for OMA VH15 - VL3D28HS31H (antibody, V domains shown) VH: EVQLVESGGGLVQPGGSLRLSCAVSGYSITSGHRWEWIRQAPGKGLEWVASIHYDGSTNYNPSVKGRITISRDDSKNTFYLQMNSLRAEDTAVYYCARATHYFGHWHFAVWGQGTLVTVSS VL: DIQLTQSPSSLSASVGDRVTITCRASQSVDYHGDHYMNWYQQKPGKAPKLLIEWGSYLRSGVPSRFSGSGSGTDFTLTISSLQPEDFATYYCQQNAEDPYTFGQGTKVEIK ?
### Response 0.000334
